assay-explanation: Rat toxicity test, oral administration for 4 weeks
Format: in vivo, male SD rats
Set-up: key: +: recognized; −: not observed
test-settings: 6 mg/kg
Description: The compounds of the present invention and the reference compound TAC-101 were orally administered to male SD rats (CLEA Japan, Inc.) for 4 weeks. The dosage of each compound was 6 mg/kg or 24 mg/kg per rat. Differences in toxic symptoms were compared and studied.
measured-attribute: Alopecia Symptom

- compound: "C[Si](C)(C)c1cc(C(=O)Nc2ccc(C(=O)O)cc2)cc([Si](C)(C)C)c1 [TAC-101, reference compound]"
  recorded-result: "+"
- compound: "C[Si](C)(C)c1cc(C(=O)Nc2ccc(/C=C/C(=O)O)c(F)c2)cc([Si](C)(C)C)c1 [Compound 2]"
  recorded-result: "−"
- compound: "C/C(=C\\c1ccc(NC(=O)c2cc([Si](C)(C)C)cc([Si](C)(C)C)c2)cc1F)C(=O)O [Compound 14]"
  recorded-result: "−"
- compound: "C[Si](C)(C)c1cc(C(=O)Nc2ccc(/C=C/C(=O)O)cc2)cc([Si](C)(C)C)c1 [Compound 3]"
  recorded-result: "−"
